Cited source for all entries: paper PMC5108032

experiment: Kinetic aqueous solubility (laser nephelometry); assay type: physicochemical; details: MilliQ water with 1.0% DMSO, aqueous with cosolvent or surfactant or cyclodextrin, kinetic from dmso stock
MEASURE_NAME: solubility kinetic (µM)
Record the value in µM, omitting the unit from your answer.

Lookup: Dear colleague, I am looking for the recorded solubility kinetic of the following compound: O=C(NCCN1CCCC1)c1cc(NCCCCN2CCOCC2)nc2ccc(Cl)cc12
Found: 220

###

test: Intrinsic clearance (Cli) in human liver microsomes; assay type: in vitro ADME; settings: human liver microsome
Can you tell me HLM Cli for the items I'm about to list?
Hi! Could you send only the number? It should be in mL min^–1 g^–1, unit omitted.

Lookup: # input compound: O=C(NCCN1CCCC1)c1cc(NCCC2CCOCC2)nc2ccc(Cl)cc12 ; wanted: its HLM Cli
Found: 1

Lookup: Now give it for O=C(NCCN1CCCC1)c1cc(-c2ccc(CN3CCOCC3)cc2F)nc2ccc(F)cc12 too.
Found: 1.5

Lookup: Then O=C(NCCN1CCCC1)c1cc(-c2ccc(CN3CCCC3=O)cc2)nc2ccc(F)cc12 ?
Found: 2

###

test system: Plasmodium falciparum strain 3D7; experiment: Plasmodium falciparum screening, SYBR green growth inhibition; assay type: cell-based; details: 3D7, supplementary csv, read-out: Pf (3D7) EC50
So I've got a bunch of molecules here, and I need their pEC50 values.
Formally, pEC50 is defined as -log10 of the concentration c, with c in mol/L.

Lookup: pEC50 for O=C(NCCN1CCCC1)c1cc(NCCCCN2CCOCC2)nc2ccc(Cl)cc12 ?
Found: 8.42

Lookup: // next record O=C(NCCN1CCCC1)c1cc(-c2ccc(CN3CCOCC3)cc2F)nc2ccc(F)cc12
Found: 8.72

Lookup: Same thing, different molecule: O=C(NCCN1CCCC1)c1cc(NCCC2CCOCC2)nc2ccc(F)cc12
Found: 8.77

Lookup: Note, next up: O=C(NCCNC1CC1)c1cc(-c2ccc(CN3CCOCC3)cc2)nc2ccc(F)cc12
Found: 8.62

Lookup: Please give the result for O=C(NCCN1CCCC1)c1cc(-c2ccc(S(=O)(=O)N3CCOCC3)cc2)nc2ccc(F)cc12 too.
Found: 8.36

Lookup: Record: O=C(NCCN1CCCC1)c1cc(-c2cccc(CN3CCOCC3)c2)nc2ccc(F)cc12
Found: 4.98

###

assay: Intrinsic clearance (Cli) in mouse liver microsomes; assay type: in vitro ADME; settings: mouse liver microsome
MEASURE_NAME: MLM Cli (mL min^–1 g^–1)
Give a bare numeral; the unit mL min^–1 g^–1 is implied.

Lookup: Could you share which MLM Cli value was measured for O=C(NCCNC1CC1)c1cc(-c2ccc(CN3CCOCC3)cc2)nc2ccc(F)cc12 ?
Found: 2

Lookup: And for O=C(NCCN1CCCC1)c1cc(-c2ccc(CN3CCCC3=O)cc2)nc2ccc(F)cc12 ?
Found: 2.0

Lookup: Okay, and O=C(NCCN1CCCC1)c1cc(-c2ccc(CN3CCOCC3)c(F)c2)nc2ccc(F)cc12 ?
Found: 1.0

###

experiment: Oral maximum tolerated dose; details: in vivo, 300 mg/kg
MEASURE_NAME: MTD at 4 days

Lookup: For the molecule shown here, O=C(NCCN1CCCC1)c1cc(NCCCN2CCOCC2)nc2ccc(F)cc12 [Compound 25] , give the reported MTD at 4 days.
Found: > 300 mg/kg

###

assay: Parallel artificial membrane permeability assay (PAMPA); format: in vitro ADME; settings: pH 7.4, read-out: PAMPA Pe
MEASURE_NAME: Papp at 5 h, 10 µM

Lookup: Reported Papp at 5 h, 10 µM, compound CC(C)NCC(O)COc1cccc2ccccc12 (stereo not shown) [propanolol, reference compound] : ____
Found: 15.9 ×10⁻⁶ cm/s

###

Tested on: MRC-5 cell line
Assay: Mammalian cell growth inhibition counter-screen (resazurin)
Type: cell-based, human
Settings: Homo sapiens, MRC5; supplementary csv; read-out: Hs MRC-5 EC50
Protocol: Plasmodium falciparum screening […] NF54). EC50 values were determined in vitro by measuring incorporation of the nucleic acid precursor […] A counter-screen against normal diploid human fibroblasts (MRC-5 cell line) was carried out to exclude non-selective, and toxic compounds. […] Resazurin, to a final concentration of 50 μM, was added to each well, after which plates were incubated for a further 3 h and measured for fluorescence (λex=528 nm, λem=590 nm) […]
Would you kindly list pEC50 for each of these compounds?
The quantity pEC50 is defined as the negative base-10 logarithm of the molar concentration.

Lookup: Data request, read-out pEC50, for Cc1ccc(-c2cc(C(=O)NCCCN(C)C)c3cc(Cl)ccc3n2)cc1
Found: 5.26

Lookup: Moving on to Cc1ccc(-c2cc(C(=O)NCCN3CCCCC3)c3cc(Cl)ccc3n2)cc1
Found: 5.13

Lookup: Follow-up entry: O=C(NCCN1CCC(F)CC1)c1cc(NCCCN2CCOCC2)nc2ccc(F)cc12
Found: 4.39

###

test: Intrinsic clearance (Cli) in mouse liver microsomes; type: in vitro ADME; details: mouse liver microsome
MEASURE_NAME: MLM Cli

Lookup: Please report the recorded MLM Cli for O=C(NCCN1CCCC1)c1cc(NCCCCN2CCOCC2)nc2ccc(Cl)cc12 .
Found: 2.0 mL min^–1 g^–1

Lookup: Then what about the compound O=C(NCCN1CCCC1)c1cc(-c2ccc(S(=O)(=O)N3CCOCC3)cc2)nc2ccc(F)cc12 ?
Found: 1.9 mL min^–1 g^–1

Lookup: Queued: CN(CCN1CCCC1)C(=O)c1cc(-c2ccc(CN3CCOCC3)cc2)nc2ccc(F)cc12
Found: <0.5 mL min^–1 g^–1

Lookup: For O=C(NCCN1CCCC1)c1cc(NCCCN2CCOCC2)nc2ccc(F)cc12 then?
Found: 0.8 mL min^–1 g^–1

Lookup: Also need O=C(NCCN1CCCC1)c1cc(-c2ccc(CN3CCOCC3)cc2F)nc2ccc(F)cc12 , thanks.
Found: <0.5 mL min^–1 g^–1

Lookup: Same question for O=C(NCCN1CCCC1)c1cc(-c2ccc(CN3CCOCC3)cc2Cl)nc2ccc(F)cc12 please.
Found: 0.5 mL min^–1 g^–1

Lookup: # iterate: O=C(NCCN1CCC1)c1cc(-c2ccc(CN3CCOCC3)cc2)nc2ccc(F)cc12
Found: 0.5 mL min^–1 g^–1

Lookup: Likewise for O=C(NCCN1CCCC1)c1cc(NCCC2CCOCC2)nc2ccc(Cl)cc12 ?
Found: 2 mL min^–1 g^–1
